- method-summary: Ex vivo plasma protein binding, terminal bleed after 5 days of acute dosing
- Assay type: in vitro ADME
- measurement-parameters: rabbit, plasma from dosed rabbits (ex vivo), oral, 30 mg/kg, RD rabbits, terminal bleed after 5 days 30 mg/kg, week 12
measured-quantity: fraction unbound at 5 days

compound	observed-measurement
OC[C@H]1O[C@H](Sc2cncc(Br)c2)[C@H](O)[C@@H](n2cc(-c3cc(F)c(F)c(F)c3)nn2)[C@H]1O [selvigaltin]	0.946

----------
- method-summary: Plasma and liver selvigaltin concentrations after 4 weeks of treatment
- Format: in vivo
- measurement-parameters: New Zealand White, rabbit, oral, HFD rabbits, 0.3, 1.0, 5.0 mg/kg, read-out: increased levels in liver tissue vs plasma
- Text: […]

compound	Kp at 4 weeks
OC[C@H]1O[C@H](Sc2cncc(Br)c2)[C@H](O)[C@@H](n2cc(-c3cc(F)c(F)c(F)c3)nn2)[C@H]1O [selvigaltin]	50 to 60
